RECORDED ENDPOINT: glass transition temperature (°C)
Write the value in °C as a bare number.

// below: answered compounds
In [3]: df
Out[3]:
                                   compound             recorded_endpoint  unit_descriptor  measured
0  *CC(*)c1ccc(C[Si](C)(C)C)cc1 (repeat unit)  glass transition temperature               °C     82.00
1           *CC(*)C1CCCC(C)C1 (repeat unit)  glass transition temperature               °C    141.00
2  *CCC1CC(*)C2C3CC(CC)C(C3)C12 (repeat unit)  glass transition temperature               °C    138.00

Supply recorded glass transition temperature for *C(=O)c1ccc2c(c1)C(=O)N(CC1(C)CC(N3C(=O)c4ccc(*)cc4C3=O)CC(C)(C)C1)C2=O (repeat unit) here. 275.00

Supply recorded glass transition temperature for */C=C/c1ccc(/C=C/c2ccc3c(c2)C(CCCCCCOc2ccc4ccc(=O)oc4c2)(CCCCCCOc2ccc4ccc(=O)oc4c2)c2cc(*)ccc2-3)cc1 (repeat unit) here. 104.00

Supply recorded glass transition temperature for *c1cc(C(=O)OCC(F)(F)C(F)(F)C(F)(F)F)c(*)s1 (repeat unit) here. 129.00

Supply recorded glass transition temperature for *Oc1ccc(N(c2ccc(OC)cc2)c2ccc3ccc(N(c4ccc(*)cc4)c4ccc(OC)cc4)cc3c2)cc1 (repeat unit) here. 197.00

Supply recorded glass transition temperature for *COC(=O)OC1C(*)OC2OC(C)(C)OC21 (repeat unit) here. 128.00

Supply recorded glass transition temperature for *CC(*)CC[Si](C)(C)C (repeat unit) here. 132.00

Supply recorded glass transition temperature for *c1ccc(Oc2ccc(Oc3ccc(N4C(=O)c5ccc(Oc6ccccc6Oc6ccc7c(c6)C(=O)N(*)C7=O)cc5C4=O)cc3)cc2)cc1 (repeat unit) here. 202.00

The reported numbers originate from the PolyMetriX glass transition set.
